test: prior cell viability test on normal human keratinocytes; type: cell-based; details: after 48 h of contact, highest 2 concentrations, 0.0001% and 0.01%
Where a SMILES comes first, the peptide text is derived from it. [ ]: non-standard residue; d: D form. Cit = NC(=O)NCCC[C@H](N)C(=O)O
PARAMETER: viability at 48 h

1) N=C(N)NCCC[C@H](NC(=O)[C@@H](N)CCCNC(N)=O)C(=O)O [L-citrullyl-L-arginine] (H-[Cit]-Arg-OH) ... > 80%
